Tested on: BT20, MDA-MB-468, MDA-MB-231, SKBR3, BT474, SUM 190PT and SUM 225CWN
Assay: Growth inhibition of a panel of breast cancer cell lines
Format: cell-based
Conditions: triple negative, trastuzumab sensitive and trastuzumab resistant cell lines; read-out: IC50 growth inhibition, range over breast cancer cell line panel
From the text: Compound 7 was taken up for further analysis of its ability to inhibit the growth of a panel of breast cancer cell lines of varied types. The panel included the triple negative cell lines BT20, MDA-MB-468 and MDA-MB-231, the trastuzumab sensitive cell lines SKBR3 and BT474, and the trastuzumab resistant cell lines SUM 190PT and SUM 225CWN (FIG. 9).
pIC50: −log10 of the molar value.
endpoint.label: pIC50

Input line: Quick one: give measured pIC50 for Cc1cc(O)c2c(c1O)C(=O)C=CC2=O [Compound 7]
Output line: 5.53 to 6.91

* * *

System: MCF-7/HER2
Test: CellTiter-Glo cell viability, IC50
Assay type: cell-based
Settings: Homo sapiens, MCF7, 48 h treatment
I'd appreciate it if you marked entries 1 (yes) when IC50 is lower than 5 µM and 0 (no) when it is not.

Some entries whose results are on file:
• Cc1ccc(O)c2c1C(=O)C=CC2=O [Compound 22, 5-hydroxy-8-methylnaphthalene-1,4-dione] = 1 (yes)
• O=C1C=C(CBr)C(=O)c2c(O)ccc(O)c21 = 1 (yes)
• CS(=O)(=O)CCNCc1ccc(-c2ccc3ncnc(Nc4ccc(OCc5cccc(F)c5)c(Cl)c4)c3c2)o1 [Lapatinib, reference compound] = 0 (no)

Input line: Could you please tell me whether IC50 recorded for Cc1cc(O)c2c(c1O)C(=O)C=CC2=O is less than 5 µM?
Output line: 1 (yes)

Input line: Could you please tell me whether IC50 recorded for COc1cc(C)cc2c1C(=O)C=CC2=O is less than 5 µM?
Output line: 1 (yes)

* * *

System: MCF-7/HER2Δ16
Assay: CellTiter-Glo cell viability, IC50
Assay type: cell-based
Settings: Homo sapiens, MCF7, 48 h treatment, read-out: IC50 MCF-7/HER2D16
Method: The antagonistic activities of the compounds were tested in an estrogen receptor positive (ER+) breast cancer cell line, MCF7 breast cancer cell lines expressing HER2, HER2Δ16 and empty vector. Lapatinib was used as the positive control. The cells were treated with the compounds at 10 μM concentration for 48 h. After treatment, cell viability was tested using the CellTiter-Glo Assay (Promega). […] The […] best compounds 7, 9, the mixture of 8a+8b, 25 and 27 were then taken up for further studies.
pIC50: −log10 of the molar value.
Given measured pIC50, output rule met if it is greater than or equal to 5 and rule not met if not.

Some entries whose results are on file:
* Cc1cc(O)c2c(c1O)C(=O)C=CC2=O [Compound 7] | rule met
* O=C1C=C(CBr)C(=O)c2c(O)ccc(O)c21 [Compound 9] | rule met

From here, focus on the item given below.
Input line: # check: pIC50 of CS(=O)(=O)CCNCc1ccc(-c2ccc3ncnc(Nc4ccc(OCc5cccc(F)c5)c(Cl)c4)c3c2)o1 [Lapatinib, reference compound] is greater than or equal to 5
Output line: rule not met
